- ASSAY_DETAILS: Solubility of the compound in water at pH 7.4 by shake flask method
- Type: physicochemical
READOUT: solubility thermodynamic (µg/mL)
Write the number in µg/mL without appending the unit.

For O=C(NCCN1CCOCC1)c1ccc2cc1OCCCCCCOc1cc(ccc1F)-c1nc(ncc1F)N2 , what is its reported solubility thermodynamic? 626

###

- ASSAY_DETAILS: Antiproliferative activity against human Osimertinib-resistant NCI-H1975 cell assessed as cell growth inhibition incubated for 72 hrs in presence of osimertinib by MTT assay
- Type: functional, cell-based
- CONDITION_SET: NCI-H1975, 72 h
READOUT: IC50

For O=C(NCCN1CCOCC1)c1ccc2cc1OCCCCCCOc1cc(ccc1F)-c1nc(ncc1F)N2 , what is its reported IC50? 0.083 µM

###

- ASSAY_DETAILS: Antiproliferative activity against human Osimertinib-resistant NCI-H1975 cell incubated for 72 hrs by MTT assay
- Format: functional, cell-based
- CONDITION_SET: NCI-H1975, 72 h
READOUT: IC50 (nM)
Write the number in nM without appending the unit.

Check out these entries, answers already filled in.
C=CC(=O)Nc1cc(Nc2nccc(-c3cn(C)c4ccccc34)n2)c(OC)cc1N(C)CCN(C)C    4690
O=C(NCCN1CCOCC1)c1ccc2cc1OCCCCCCOc1cc(ccc1F)-c1nc(ncc1F)N2    251

// next entry
For COc1cc(F)ccc1-c1ncnc(Nc2cccc(C[S@](C)(=N)=O)c2)n1 , what is its reported IC50? 1080

###

- ASSAYED_TARGET: Tyrosine-protein kinase JAK2 (Homo sapiens)
- ASSAY_DETAILS: Inhibition of JAK2 (unknown origin) at 100 nM preincubated for 10 mins followed by substrate addition and measured after 60 mins in presence of ATP by ADP-Glo reagent based assay relative to control
- CONDITION_SET: time 70.0 min
READOUT: inhibition
Report as: number unit

O=C(NCCN1CCOCC1)c1ccc2cc1OCCOCCOc1cc(ccc1F)-c1nc(ncc1F)N2    71.4%
O=C(NC1CCOCC1)c1ccc2cc1OCCCCOc1cc(ccc1F)-c1nc(ncc1F)N2    73.2%
O=C(NCCN1CCOCC1)c1ccc2cc1OCCCCCOc1cc(ccc1F)-c1nc(ncc1F)N2    56.5%
O=C(NCCN1CCOCC1)c1ccc2cc1OCCCCOc1cc(ccc1F)-c1nc(ncc1F)N2    79.7%

// next entry
For O=C(NCCN1CCOCC1)c1ccc2cc1OCCCCCCOc1cc(ccc1F)-c1nc(ncc1F)N2 , what is its reported inhibition? 23.3%

###

- ASSAYED_TARGET: CDK9/cyclin T1 (Homo sapiens)
- Sequence (O60563 whole entry): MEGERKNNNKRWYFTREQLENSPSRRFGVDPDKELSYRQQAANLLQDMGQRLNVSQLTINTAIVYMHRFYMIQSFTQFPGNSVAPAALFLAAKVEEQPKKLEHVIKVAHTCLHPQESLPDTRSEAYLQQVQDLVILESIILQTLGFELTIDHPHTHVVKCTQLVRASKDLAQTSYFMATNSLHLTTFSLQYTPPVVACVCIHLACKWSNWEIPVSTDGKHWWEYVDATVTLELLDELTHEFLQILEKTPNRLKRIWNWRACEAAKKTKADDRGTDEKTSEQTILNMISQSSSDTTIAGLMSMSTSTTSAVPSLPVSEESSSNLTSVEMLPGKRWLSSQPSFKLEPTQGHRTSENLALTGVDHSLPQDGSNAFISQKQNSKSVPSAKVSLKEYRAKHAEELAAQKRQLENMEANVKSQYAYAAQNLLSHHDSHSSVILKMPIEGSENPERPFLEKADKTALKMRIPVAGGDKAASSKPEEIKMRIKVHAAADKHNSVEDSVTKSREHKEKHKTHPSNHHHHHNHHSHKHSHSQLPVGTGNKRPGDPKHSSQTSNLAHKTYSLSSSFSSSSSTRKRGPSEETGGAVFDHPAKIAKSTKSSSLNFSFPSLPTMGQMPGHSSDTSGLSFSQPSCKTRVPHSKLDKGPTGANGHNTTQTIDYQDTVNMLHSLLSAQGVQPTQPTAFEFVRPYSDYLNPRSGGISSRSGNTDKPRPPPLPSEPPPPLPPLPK
- Sequence (P50750 whole entry): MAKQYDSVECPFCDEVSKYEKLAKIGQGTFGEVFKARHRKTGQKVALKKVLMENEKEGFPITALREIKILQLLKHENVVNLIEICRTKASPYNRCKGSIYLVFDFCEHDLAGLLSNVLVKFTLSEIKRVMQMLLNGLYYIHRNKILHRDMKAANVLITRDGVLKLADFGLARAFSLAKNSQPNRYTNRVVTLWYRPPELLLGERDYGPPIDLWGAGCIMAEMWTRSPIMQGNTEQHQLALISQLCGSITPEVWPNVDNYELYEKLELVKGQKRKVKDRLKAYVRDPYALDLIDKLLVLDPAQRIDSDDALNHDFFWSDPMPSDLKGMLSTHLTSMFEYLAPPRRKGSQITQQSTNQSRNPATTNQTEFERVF
- ASSAY_DETAILS: Inhibition of CDK9/Cyclin-T1 (unknown origin) preincubated for 10 mins followed by substrate addition and measured after 60 mins in presence of ATP by ADP-Glo reagent based assay
Entries and their IC50
Write the number in nM without appending the unit.

Check out these entries, answers already filled in.
O=C(NCC1CCNCC1)c1ccc2cc1OCCCCOc1cc(ccc1F)-c1nc(ncc1F)N2    2.1
O=C(NC1CCC(N2CCOCC2)CC1)c1ccc2cc1OCCCCCCOc1cc(ccc1F)-c1nc(ncc1F)N2 (centres undefined)    2
O=C(NCCN1CCOCC1)c1ccc2cc1OCCCCCOc1cc(ccc1F)-c1nc(ncc1F)N2    1.1
O=C(NCCN1CCOCC1)c1ccc2cc1OCCCCCCOc1cc(ccc1F)-c1nc(ncc1F)N2    3.2
O=C(NC1CCCNCC1)c1ccc2cc1OCCCCOc1cc(ccc1F)-c1nc(ncc1F)N2 (centres undefined)    3.1
O=C(NCCN1CCOCC1)c1ccc2cc1OCCOCCOc1cc(ccc1F)-c1nc(ncc1F)N2    2.1
O=C(NCCN1CCOCC1)c1ccc2cc1OCCCCOc1cc(ccc1F)-c1nc(ncc1F)N2    0.9
CN(C)CCNC(=O)c1ccc2cc1OCCCCOc1cc(ccc1F)-c1nc(ncc1F)N2    1.1

For O=C(NC1CCOCC1)c1ccc2cc1OCCCCOc1cc(ccc1F)-c1nc(ncc1F)N2 , what is its reported IC50? 2.8

###

- ASSAY_DETAILS: Metabolic stability in human liver microsomes assessed as half life at 10 uM measured at 5 to 60 mins by LC-MS/MS analysis
- Type: ADME, Microsome
- CONDITION_SET: time 5-60 min
READOUT: half-life at 10 µM (min)
Write the number in min without appending the unit.

For O=C(NCCN1CCOCC1)c1ccc2cc1OCCCCCCOc1cc(ccc1F)-c1nc(ncc1F)N2 , what is its reported half-life at 10 µM? 10.7

###

- ASSAYED_TARGET: Receptor-type tyrosine-protein kinase FLT3 (Homo sapiens)
- ASSAY_DETAILS: Inhibition of FLT3 (unknown origin) at 100 nM preincubated for 10 mins followed by substrate addition and measured after 60 mins in presence of ATP by ADP-Glo reagent based assay relative to control
- CONDITION_SET: time 70.0 min
Entries and their inhibition
Write the number in % without appending the unit.

O=C(NCCN1CCOCC1)c1ccc2cc1OCCCCCOc1cc(ccc1F)-c1nc(ncc1F)N2    62.8

Missing value: inhibition, Receptor-type tyrosine-protein kinase FLT3 (Homo sapiens), entry O=C(NCCN1CCOCC1)c1ccc2cc1OCCCCCCOc1cc(ccc1F)-c1nc(ncc1F)N2 . Fill in? 21.2

Missing value: inhibition, Receptor-type tyrosine-protein kinase FLT3 (Homo sapiens), entry O=C(NC1CCOCC1)c1ccc2cc1OCCCCOc1cc(ccc1F)-c1nc(ncc1F)N2 . Fill in? 60.9

Missing value: inhibition, Receptor-type tyrosine-protein kinase FLT3 (Homo sapiens), entry O=C(NCCN1CCOCC1)c1ccc2cc1OCCCCOc1cc(ccc1F)-c1nc(ncc1F)N2 . Fill in? 77.3

Missing value: inhibition, Receptor-type tyrosine-protein kinase FLT3 (Homo sapiens), entry O=C(NCCN1CCOCC1)c1ccc2cc1OCCOCCOc1cc(ccc1F)-c1nc(ncc1F)N2 . Fill in? 68.7

###

- ASSAYED_TARGET: CDK9/cyclin T1 (Homo sapiens) (UniProt O60563+P50750)
- ASSAY_DETAILS: Inhibition of CDK9/Cyclin-T1 (unknown origin) at 20 nM preincubated for 10 mins followed by substrate addition and measured after 60 mins in presence of ATP by ADP-Glo reagent based assay relative to control
- Type: protein-complex assay
- CONDITION_SET: time 70.0 min
READOUT: inhibition (%)
Write the number in % without appending the unit.

O=C(c1ccc2cc1OCCCCOc1cc(ccc1F)-c1nc(ncc1F)N2)N1CCC(N2CCOCC2)CC1    20.9
O=C(c1ccc2cc1OCCCCOc1cc(ccc1F)-c1nc(ncc1F)N2)N1CCNCC1    45.7
O=C(c1ccc2cc1OCCCCOc1cc(ccc1F)-c1nc(ncc1F)N2)N1CCC(N2CCOCC2)C1 (centres undefined)    27.6

// next entry
For O=C(c1ccc2cc1OCCCCOc1cc(ccc1F)-c1nc(ncc1F)N2)N1CCCNCC1 , what is its reported inhibition? 27

###

- ASSAY_DETAILS: Oral bioavailability in Sprague-Dawley rat at 20 mg/kg measured upto 24 hrs
- Type: ADME, organism-based
- CONDITION_SET: in vivo
READOUT: bioavailability (%)
Write the number in % without appending the unit.

For O=C(NCCN1CCOCC1)c1ccc2cc1OCCCCCCOc1cc(ccc1F)-c1nc(ncc1F)N2 , what is its reported bioavailability? 8

###

- ASSAYED_TARGET: CDK2/Cyclin A2 (Homo sapiens)
- ASSAY_DETAILS: Inhibition of CDK2/Cyclin A2 (unknown origin) preincubated for 10 mins followed by substrate addition and measured after 60 mins in presence of ATP by ADP-Glo reagent based assay
READOUT: IC50
Report as: number unit

O=C(NC1CCOCC1)c1ccc2cc1OCCCCOc1cc(ccc1F)-c1nc(ncc1F)N2    95.1 nM
O=C(NCCN1CCOCC1)c1ccc2cc1OCCCCCOc1cc(ccc1F)-c1nc(ncc1F)N2    66.2 nM
O=C(NCCN1CCOCC1)c1ccc2cc1COCCCCOCc1cc(ccc1F)-c1nc(ncc1F)N2    140 nM
O=C(NCC1CCNCC1)c1ccc2cc1OCCCCOc1cc(ccc1F)-c1nc(ncc1F)N2    15 nM
O=C(NC1CCCNCC1)c1ccc2cc1OCCCCOc1cc(ccc1F)-c1nc(ncc1F)N2 (stereo not given)    54.3 nM
O=C(NC1CCN(C2CCOCC2)CC1)c1ccc2cc1OCCCCCCOc1cc(ccc1F)-c1nc(ncc1F)N2    117 nM
COc1cc(F)ccc1-c1ncnc(Nc2ccc(C(=O)NCCN(C)C)cc2)n1    24 nM
O=C(NCCN1CCOCC1)c1ccc2cc1OCCCCOc1cc(ccc1F)-c1nc(ncc1F)N2    34.2 nM

For CN1CCC(NC(=O)c2ccc3cc2OCCCCCCOc2cc(ccc2F)-c2nc(ncc2F)N3)CC1 , what is its reported IC50? 30.7 nM

For O=C(NC1CCC(N2CCOCC2)CC1)c1ccc2cc1OCCCCCCOc1cc(ccc1F)-c1nc(ncc1F)N2 (stereo not given) , what is its reported IC50? 715 nM
